For each of the compounds below, state its IC50.
target: JAK3 (Homo sapiens (Human), UniProt P52333); assay: JAK3 enzyme assay (Assay Example^b 1); conditions: IC50 (μM) JAK3, ATP 100 μM
Sequence (P52333 whole entry): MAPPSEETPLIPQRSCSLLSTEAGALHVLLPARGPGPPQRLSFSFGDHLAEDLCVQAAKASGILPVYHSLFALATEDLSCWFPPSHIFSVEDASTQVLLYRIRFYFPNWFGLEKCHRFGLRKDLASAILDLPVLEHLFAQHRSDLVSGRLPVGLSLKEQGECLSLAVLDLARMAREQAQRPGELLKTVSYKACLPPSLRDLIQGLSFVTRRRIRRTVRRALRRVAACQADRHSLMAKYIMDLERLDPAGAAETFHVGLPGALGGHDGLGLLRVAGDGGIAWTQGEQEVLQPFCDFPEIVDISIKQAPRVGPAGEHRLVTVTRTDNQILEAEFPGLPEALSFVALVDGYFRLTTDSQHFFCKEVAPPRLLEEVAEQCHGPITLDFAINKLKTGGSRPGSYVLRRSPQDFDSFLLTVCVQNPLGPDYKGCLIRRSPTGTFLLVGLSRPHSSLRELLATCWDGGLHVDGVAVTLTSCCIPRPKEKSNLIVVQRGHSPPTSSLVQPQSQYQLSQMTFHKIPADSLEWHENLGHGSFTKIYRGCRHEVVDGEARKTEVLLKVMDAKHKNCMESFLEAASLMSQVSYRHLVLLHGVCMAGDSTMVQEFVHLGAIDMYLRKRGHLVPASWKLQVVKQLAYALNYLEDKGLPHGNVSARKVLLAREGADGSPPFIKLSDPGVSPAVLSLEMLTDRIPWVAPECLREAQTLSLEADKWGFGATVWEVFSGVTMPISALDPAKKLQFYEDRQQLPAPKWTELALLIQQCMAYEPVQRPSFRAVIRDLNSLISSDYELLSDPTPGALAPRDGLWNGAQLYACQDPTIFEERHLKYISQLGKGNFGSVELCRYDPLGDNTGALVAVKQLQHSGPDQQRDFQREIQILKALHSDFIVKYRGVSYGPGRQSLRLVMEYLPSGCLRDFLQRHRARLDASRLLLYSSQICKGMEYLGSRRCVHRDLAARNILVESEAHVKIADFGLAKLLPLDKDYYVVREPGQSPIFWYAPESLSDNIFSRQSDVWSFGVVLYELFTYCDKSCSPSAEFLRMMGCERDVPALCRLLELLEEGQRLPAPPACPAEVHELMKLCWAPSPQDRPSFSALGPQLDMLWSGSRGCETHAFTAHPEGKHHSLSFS

Data request: Form: Entry = CC(CO)(CO)Cn1c(=O)c2cnc3[nH]ccc3c2n(C2CCCCC2)c1=O [compound 151] | System = JAK3 (Homo sapiens (Human), UniProt P52333) | IC50 = ____
Data returned: > 1 µM

Data request: Please do the same for O=c1[nH]c(=O)n(C2C3CC4CC2CC(O)(C4)C3)c2c1cnc1[nH]ccc12 (stereo not shown) [compound 104] as well.
Data returned: 0.38 µM

Data request: Please do the same for O=c1[nH]c(=O)n(C2CCN(Cc3ccc(Br)s3)CC2)c2c1cnc1[nH]ccc12 [compound 89] as well.
Data returned: > 1 µM

Data request: Please do the same for O=c1[nH]c(=O)n(C2CCN(CCC3CCOCC3)CC2)c2c1cnc1[nH]ccc12 [compound 93] as well.
Data returned: > 1 µM

Data request: Please do the same for O=c1[nH]c(=O)n(C2CCC(CN(CCO)Cc3ccccc3)CC2)c2c1cnc1[nH]ccc12 (stereo not shown) [compound 121] as well.
Data returned: > 1 µM

Data request: Please do the same for O=c1[nH]c(=O)n(C2CCN(CCNC3CCNCC3)CC2)c2c1cnc1[nH]ccc12 [compound 111] as well.
Data returned: > 1 µM

Data request: Please do the same for CC(C)(C)OC(=O)N1CCC(NCCN2CCC(n3c(=O)[nH]c(=O)c4cnc5[nH]ccc5c43)CC2)CC1 [compound 109] as well.
Data returned: > 1 µM

Data request: Please do the same for O=c1c2cnc3[nH]ccc3c2n(C2CCCCC2)c(=O)n1CCN1CCOCC1 [compound 142] as well.
Data returned: > 1 µM

Data request: Please do the same for CN(C)C(=O)Cn1c(=O)c2cnc3[nH]ccc3c2n(C2CCCCC2)c1=O [compound 152] as well.
Data returned: 0.48 µM

Data request: Please do the same for O=c1[nH]c(=O)n(C2C3CC4CC2CC(O)(C4)C3)c2c1cnc1[nH]ccc12 (stereo not shown) [compound 105] as well.
Data returned: > 1 µM

Data request: Please do the same for CC(C#N)n1c(=O)c2cnc3[nH]ccc3c2n(C2CCCCC2)c1=O (racemic) [compound 146] as well.
Data returned: > 1 µM

Data request: Please do the same for N#CCC1CN(C[C@H]2CC[C@H](n3c(=O)[nH]c(=O)c4cnc5[nH]ccc5c43)CC2)C1 [compound 124] as well.
Data returned: > 1 µM

Data request: Please do the same for O=c1ccn(C2C3CC4CC2CC(O)(C4)C3)c2c1cnc1[nH]ccc12 (stereo not shown) [compound 107] as well.
Data returned: 0.41 µM

Data request: Please do the same for O=c1[nH]c(=O)n([C@H]2CC[C@H](CNCC3(O)CCCCC3)CC2)c2c1cnc1[nH]ccc12 [compound 126] as well.
Data returned: > 1 µM

Data request: Please do the same for Cn1c(=O)c2cnc3[nH]ccc3c2n(C2CCCCC2)c1=O [Synthetic Example^b 138] as well.
Data returned: 0.51 µM

Data request: Please do the same for CCC(C)CN1CCC(n2c(=O)[nH]c(=O)c3cnc4[nH]ccc4c32)CC1 (racemic) [compound 92] as well.
Data returned: > 1 µM

Data request: Please do the same for O=CC1CCC(n2c(=O)[nH]c(=O)c3cnc4[nH]ccc4c32)CC1 (stereo not shown) [compound 133] as well.
Data returned: > 1 µM

Data request: Please do the same for O=c1c2cnc3[nH]ccc3c2n(C2CCCCC2)c(=O)n1CC(F)(F)F [Synthetic Example^b 139] as well.
Data returned: > 1 µM

Data request: Please do the same for O=c1[nH]c(=O)n(C2CCC(CNCC3CC3)CC2)c2c1cnc1[nH]ccc12 (stereo not shown) [compound 117] as well.
Data returned: > 1 µM

Data request: Please do the same for O=c1[nH]c(=O)n(C2CCN(CC3CC3)CC2)c2c1cnc1[nH]ccc12 [compound 91] as well.
Data returned: > 1 µM

Data request: Please do the same for O=c1ccn(C2C3CC4CC2CC(O)(C4)C3)c2c1cnc1[nH]ccc12 (stereo not shown) [compound 106] as well.
Data returned: 0.61 µM

Data request: Please do the same for N#CCC(=O)N(CC(F)(F)F)C[C@H]1CC[C@H](n2c(=O)[nH]c(=O)c3cnc4[nH]ccc4c32)CC1 [Synthetic Example^b 135] as well.
Data returned: 0.5 µM

Data request: Please do the same for N#CCC[C@H]1CC[C@H](n2c(=O)[nH]c(=O)c3cnc4[nH]ccc4c32)CC1 [Synthetic Example^b 134] as well.
Data returned: 0.81 µM

Data request: Please do the same for N#CC=CC1CCC(n2c(=O)[nH]c(=O)c3cnc4[nH]ccc4c32)CC1 (stereo not shown) [compound 103] as well.
Data returned: > 1 µM

Data request: Please do the same for O=c1c2cnc3[nH]ccc3c2n(C2CCCCC2)c(=O)n1C1CCNCC1 [compound 154] as well.
Data returned: > 1 µM
